Here the recorded pEC50 is given for each entry.
- tested.on: full-length FXR (Homo sapiens)
- Construct: The cells were co-transfected with plasmids encoding full-length FXR and the cognate luciferase reporter EcRE-Luc; expressed in transfected cells; host or cells: COS-7
- Sequence (Q96RI1 1-486): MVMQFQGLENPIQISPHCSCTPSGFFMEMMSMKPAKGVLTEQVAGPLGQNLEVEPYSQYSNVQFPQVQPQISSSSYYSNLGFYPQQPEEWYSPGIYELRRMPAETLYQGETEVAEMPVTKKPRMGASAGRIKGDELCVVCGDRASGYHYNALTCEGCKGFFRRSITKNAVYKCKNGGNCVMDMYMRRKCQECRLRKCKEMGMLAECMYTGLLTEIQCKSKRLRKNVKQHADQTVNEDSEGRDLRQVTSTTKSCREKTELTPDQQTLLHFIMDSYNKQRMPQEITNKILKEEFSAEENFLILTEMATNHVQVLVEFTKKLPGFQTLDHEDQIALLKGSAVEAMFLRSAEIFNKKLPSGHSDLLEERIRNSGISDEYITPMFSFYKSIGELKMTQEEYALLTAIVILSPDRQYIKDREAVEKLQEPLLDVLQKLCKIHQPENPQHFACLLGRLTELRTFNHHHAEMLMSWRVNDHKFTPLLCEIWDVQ
- assay.summary: Cell-based FXR transactivation, EcRE luciferase reporter in COS-7 cells
- condition.context: EcRE luciferase reporter, Table 2
pEC50: −log10 of the molar value.

In the examples that follow, each entry is paired with its recorded pEC50.
compound="O=C(OC1CCC2CCCCC2C1)c1ccc([N+](=O)[O-])cc1 (stereo not shown)" readout_label=pEC50 value_measured="> 6.00"
compound="COc1cc(C(=O)OC2CC3CCC2(C)C3(C)C)ccc1F (stereo not shown)" readout_label=pEC50 value_measured="5.00 to 6.00"
compound="CC1(C)C2CCC1(C)C(OC(=O)c1ccc(N)cc1)C2 (stereo not shown)" readout_label=pEC50 value_measured="> 6.00"
compound="Cc1cc(C(=O)OC2CCC3CCCCC3C2)ccc1F (stereo not shown)" readout_label=pEC50 value_measured="5.00 to 6.00"
compound="CC1(C)C2CCC1(C)C(OC(=O)c1ccncc1)C2 (stereo not shown)" readout_label=pEC50 value_measured="5.00 to 6.00"

Ask: # return pEC50 of COc1cc(C(=O)OC2CCC3CCCCC3C2)ccc1[N+](=O)[O-] (stereo not shown) (system: full-length FXR (Homo sapiens))
Reply: 5.00 to 6.00

Ask: # return pEC50 of Cc1cc(C(=O)OC2CCCCCCC2)ccc1O [XD-17, cyclooctyl 4-hydroxy-3-methylbenzoate] (system: full-length FXR (Homo sapiens))
Reply: > 6.00

Ask: # return pEC50 of O=C(OC1CCC2CCCCC2C1)c1ccc(O)cc1 (stereo not shown) (system: full-length FXR (Homo sapiens))
Reply: > 6.00

Ask: # return pEC50 of Cc1cc(C(=O)OC2CCC3CCCCC3C2)ccc1N (stereo not shown) (system: full-length FXR (Homo sapiens))
Reply: > 6.00

Ask: # return pEC50 of Cc1cc(C(=O)OC2CCC3CCCCC3C2)ccc1O (stereo not shown) (system: full-length FXR (Homo sapiens))
Reply: > 6.00

###

- Tested on: human cervical carcinoma Hela cells
- assay.summary: MTT cell viability assay, Hela
- Assay type: cell-based
- condition.context: 20 uM, 48 h, read-out: Cell viability as a percentage of the cells treated with DMSO, Hela
Here the recorded viability at 20 µM is given for each entry.
Give the number; % is assumed, so skip it.

compound="CC1(C)C2CCC1(C)C(OC(=O)c1ccc(=O)oc1)C2 (centres unmarked)" tested_on="human cervical carcinoma Hela cells" readout_label="viability at 20 µM" value_measured=80
compound="Nc1ccc(C(=O)OC2CCCCCC2)cc1 [XD-12, cycloheptyl 4-aminobenzoate]" tested_on="human cervical carcinoma Hela cells" readout_label="viability at 20 µM" value_measured=100
compound="Nc1ccc(C(=O)OC2CC3CCC2C3)cc1 (centres unmarked)" tested_on="human cervical carcinoma Hela cells" readout_label="viability at 20 µM" value_measured=100
compound="CC1(C)C2CCC1(C)C(OC(=O)c1ccc(=O)[nH]c1)C2 (centres unmarked)" tested_on="human cervical carcinoma Hela cells" readout_label="viability at 20 µM" value_measured=97

Ask: Answer with reported viability at 20 µM of COc1cc(C(=O)OC2CCC3CCCCC3C2)ccc1N (centres unmarked)
Reply: 73

Ask: Answer with reported viability at 20 µM of C/C1=C\CCC(C)(O)/C=C/C(C(C)C)C(OC(=O)c2ccc(O)cc2)C1 (centres unmarked)
Reply: 83

Ask: Answer with reported viability at 20 µM of `COc1cc(C(=O)O[C@H]2C[C@H]3CC[C@]2(C)C3(C)C)ccc1O`
Reply: 98

Ask: Answer with reported viability at 20 µM of CC1(C)C2CCC1(C)C(OC(=O)c1ccc(F)c(Br)c1)C2 (centres unmarked)
Reply: 100

Ask: Answer with reported viability at 20 µM of O=C(OC1CCC2CCCCC2C1)c1ccc(O)cc1 (centres unmarked)
Reply: 94

Ask: Answer with reported viability at 20 µM of Cc1cc(C(=O)OC2CC3CCC2(C)C3(C)C)ccc1F (centres unmarked)
Reply: 100

Ask: Answer with reported viability at 20 µM of O=C(OC1CCCCCCCCCCC1)c1ccc(O)cc1 [XD-11, cyclododecyl 4-hydroxybenzoate]
Reply: 100

Ask: Answer with reported viability at 20 µM of `CC1(C)[C@@H]2CC[C@@]1(C)[C@@H](OC(=O)c1ccc(O)cc1)C2`
Reply: 94

Ask: Answer with reported viability at 20 µM of Cc1cc(C(=O)OC2CCCCCCC2)ccc1O [XD-17, cyclooctyl 4-hydroxy-3-methylbenzoate]
Reply: 83

###

- Test system: human hepatoma HepG2 cells
- assay.summary: MTT cell viability assay, HepG2
- Format: cell-based
- condition.context: 20 uM, 48 h, read-out: Cell viability as a percentage of the cells treated with DMSO, HepG2
Here the recorded viability at 20 µM is given for each entry.
Give the number; % is assumed, so skip it.

In the examples that follow, each entry is paired with its recorded viability at 20 µM.
compound="O=C(OC1CC2CCC1C2)c1ccc([N+](=O)[O-])cc1 (stereo not shown) [XD-25]" units_text=% value_measured=100
compound="COc1cc(C(=O)OC2CCC3CCCCC3C2)ccc1N (stereo not shown) [XD-32]" units_text=% value_measured=100
compound="Nc1ccc(C(=O)OC2CCC3CCCCC3C2)cc1 (stereo not shown) [XD-23]" units_text=% value_measured=100
compound="CC1(C)C2CCC1(C)C(OC(=O)c1ccc(F)c(Br)c1)C2 (stereo not shown) [XD-13]" units_text=% value_measured=92
compound="CC1(C)C2CCC1(C)C(OC(=O)c1ccc(F)cc1)C2 (stereo not shown) [XD-0]" units_text=% value_measured=81

Ask: Answer with reported viability at 20 µM of CC1(C)C2CCC1(C)C(OC(=O)c1ccc(N)cc1)C2 (stereo not shown) [XD-5]
Reply: 95

Ask: Answer with reported viability at 20 µM of O=C(OC1CCC2CCCCC2C1)c1ccc([N+](=O)[O-])cc1 (stereo not shown) [XD-26]
Reply: 100

Ask: Answer with reported viability at 20 µM of C/C1=C\CCC(C)(O)/C=C/C(C(C)C)C(OC(=O)c2ccc(O)cc2)C1 (stereo not shown) [Feroline]
Reply: 84

Ask: Answer with reported viability at 20 µM of Nc1ccc(C(=O)OC2CC3CCC2C3)cc1 (stereo not shown) [XD-22]
Reply: 100

Ask: Answer with reported viability at 20 µM of Cc1cc(C(=O)OC2CC3CCC2(C)C3(C)C)ccc1N (stereo not shown) [XD-4]
Reply: 90

###

- tested.on: full-length FXR (Homo sapiens, UniProt Q96RI1)
- Construct: The cells were co-transfected with plasmids encoding full-length FXR and the cognate luciferase reporter EcRE-Luc; expressed in transfected cells; host or cells: COS-7
- assay.summary: Cell-based FXR transactivation, EcRE luciferase reporter in COS-7 cells
- condition.context: EcRE luciferase reporter, Table 2
pEC50: −log10 of the molar value.
readout.label: pEC50

molecule="COc1cc(C(=O)OC2CCC3CCCCC3C2)ccc1O (stereo not shown)" value_measured="> 6.00"
molecule="COc1cc(C(=O)OC2CCCCCCC2)ccc1O [XD-18, cyclooctyl 4-hydroxy-3-methoxybenzoate]" value_measured="> 6.00"
molecule="Nc1ccc(C(=O)OC2CCCCCCC2)cc1 [XD-16, cyclooctyl 4-aminobenzoate]" value_measured="> 6.00"
molecule="Nc1ccc(C(=O)OC2CCC3CCCCC3C2)cc1 (stereo not shown)" value_measured="> 6.00"

Ask: # return pEC50 of COc1cc(C(=O)OC2CCC3CCCCC3C2)ccc1N (stereo not shown) (system: full-length FXR (Homo sapiens, UniProt Q96RI1))
Reply: > 6.00

Ask: # return pEC50 of Cc1cc(C(=O)OC2CC3CCC2(C)C3(C)C)ccc1[N+](=O)[O-] (stereo not shown) (system: full-length FXR (Homo sapiens, UniProt Q96RI1))
Reply: 5.00 to 6.00

Ask: # return pEC50 of O=C(OC1CCCCCCC1)c1ccc([N+](=O)[O-])cc1 [XD-24, cyclooctyl 4-nitrobenzoate] (system: full-length FXR (Homo sapiens, UniProt Q96RI1))
Reply: > 6.00

Ask: # return pEC50 of Cc1cc(C(=O)OC2CCC3CCCCC3C2)ccc1[N+](=O)[O-] (stereo not shown) (system: full-length FXR (Homo sapiens, UniProt Q96RI1))
Reply: 5.00 to 6.00

Ask: # return pEC50 of O=C(OC1CC2CCC1C2)c1ccc([N+](=O)[O-])cc1 (stereo not shown) (system: full-length FXR (Homo sapiens, UniProt Q96RI1))
Reply: > 6.00

Ask: # return pEC50 of CC1(C)C2CCC1(C)C(OC(=O)c1ccc(=O)oc1)C2 (stereo not shown) (system: full-length FXR (Homo sapiens, UniProt Q96RI1))
Reply: 5.00 to 6.00

Hello, the source for this data is patent US20180116993A1, in case you need it.
